Tested on: ALuc16
Assay: Metal cation-driven optical intensities of ALuc16 (purified enzyme)
Type: biochemical
Settings: metal cation-free Tris-HCl buffer (pH 8.2, 0.05 M), nCTZ
Procedure: The metal cation-driven optical properties were estimated with ALuc16 (FIG. 6). A metal cation-free sample of ALuc16 was prepared beforehand as follows: we first generated a DNA construct of ALuc16 carrying a Strep-II tag at the C-terminus via PCR. […] The optical images were analyzed with Multi Gauge V3.2 (FujiFilm). […]
RECORDED ENDPOINT: effect on optical intensities (activities) of ALuc16

Sample answers from the record:
[Cl-].[Cl-].[Zn+2]: suppress
[Cl-].[Cl-].[Co+2]: suppress
N: little effect
[Cl][Cu][Cl]: suppress
[K+]: little effect

In: Return reported effect on optical intensities (activities) of ALuc16 for target or system ALuc16, item [Li+] .
Out: little effect

In: Return reported effect on optical intensities (activities) of ALuc16 for target or system ALuc16, item [Na+] .
Out: little effect

Values were extracted from patent US10787650B2.
